MEASURED_TARGET: T1, TRBP-ΔC (UniProt Q15633-2 9-215)
T1 sequence: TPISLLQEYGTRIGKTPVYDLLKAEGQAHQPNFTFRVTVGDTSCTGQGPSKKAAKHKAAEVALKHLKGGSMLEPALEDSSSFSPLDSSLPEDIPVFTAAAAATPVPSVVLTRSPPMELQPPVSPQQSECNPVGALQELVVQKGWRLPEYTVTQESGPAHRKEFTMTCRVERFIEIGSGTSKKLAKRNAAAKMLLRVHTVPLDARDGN
PROTOCOL_DETAILS: EMSA; apparent Kd; nH 5; 50 mM sodium cacodylate pH 7.0, 50 mM potassium glutamate, 5% glycerol; EMSA 0.5 pM RNA, 30 min at room temperature, gel 0.25X TBE at 10 C; CD at 10 C with 5-15 uM RNA
PARTICULARS: protein: recombinant; label: 5'-32P top strand; duplex with 1-nt U-bulge
PARAMETER: Kd (nM)

binder="U-bulge (dsRNA) RNA 1: GGUCAGCACGUAAAUAUUGUCC RNA 2: GGACAGUAUUUACUGUGCUGAUC" parameter=Kd recorded_measurement=300

Ref: paper PMC4301919
